- TGT: T1, Bdf1 bromodomain 1 (GST-tagged, WT) (Saccharomyces cerevisiae (strain ATCC …, UniProt P35817))
- T1 chain: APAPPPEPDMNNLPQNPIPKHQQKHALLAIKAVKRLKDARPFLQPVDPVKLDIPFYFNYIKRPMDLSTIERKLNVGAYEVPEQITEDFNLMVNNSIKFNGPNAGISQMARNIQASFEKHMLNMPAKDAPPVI
- ASSAY_METHOD_TEXT: histone peptide array probed with recombinant GST-bromodomain, signal normalised to myc peptide control
Non-standard residues stand in square brackets, D forms with d. No end group written: not given here. Arg(Me2a) = CN(C)C(=N)NCCC[C@H](N)C(=O)O; Lys(Me3) = C[N+](C)(C)CCCC[C@H](N)C(=O)O; Arg(Me2s) = CN=C(NC)NCCC[C@H](N)C(=O)O; Lys(Me2) = CN(C)CCCC[C@H](N)C(=O)O
VALUE_KIND: binding score

• A[Arg(Me2a)]T[Lys(Me2)]QTA[Arg(Me2s)][Lys(Me3)]STGGKAPRKQ [H3 1-19] = 0.0167

1. SGRGK(Ac)QGGK(Ac)ARAKAKSRSS [H2a 1-19]
2. SGRGKGGKGLGKGGAKRHR (S G Rme2s G Kac G G Kac G L G K G G A K R H R) [H4 1-19]
IN: Name the one with the greater binding score value, either 1 or 2 as given. Your choice should be expressed through its label.
OUT: 2
